Exercise: for every item that follows, state its recorded protein stability index.
B1: MED27 (parent)
chain: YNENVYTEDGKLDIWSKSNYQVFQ

variants of: B1; assay: protein stability index of a GFP-peptide fusion (GPS, HEK-293T) (PSI 1-6); higher = more stable; details: c terminus: a fixed tail appended;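 note: lentivirally expressed fusions sorted by FACS into six bins by GFP to DsRed ratio, PSI derived from sequencing read proportions per bin multiplied by bin number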
Answer with a number only.

Provide only the value of recorded protein stability index for `Q21Y`
2.02

Provide only the value of recorded protein stability index for `D9P`
2.03

Provide only the value of recorded protein stability index for `K17A`
2.24

Provide only the value of recorded protein stability index for `Q21K`
2.44

Provide only the value of recorded protein stability index for `D13A`
2.12

Provide only the value of recorded protein stability index for `E3N`
2.36

Provide only the value of recorded protein stability index for `Q24I`
1.6

Provide only the value of recorded protein stability index for `E3I`
1.81

Provide only the value of recorded protein stability index for `Y6M`
2.17

Provide only the value of recorded protein stability index for `D13I`
2.06

Provide only the value of recorded protein stability index for `Y1R`
3.11

Provide only the value of recorded protein stability index for `V5L`
2.21

Provide only the value of recorded protein stability index for `F23A`
2.5
